METRIC: melting point

Look over these answered cases.
>  <MOLECULE>
COc1cccnc1NC(=O)Nc1ccc(N2CCN(C(=O)Nc3ccc(OCCO)cc3Cl)CC2)cc1

>  <melting point>
215 to 216 °C

$$$$
>  <MOLECULE>
COc1ccc(F)cc1NC(=O)Nc1ccc(N2CCN(C(=O)Nc3c(Cl)cccc3Cl)CC2)cc1

>  <melting point>
235 to 237 °C

$$$$
>  <MOLECULE>
COc1ccccc1NC(=O)Nc1ccc(N2CCN(C(=O)Nc3ccc(OCCO)cc3Cl)CC2)c(Cl)c1

>  <melting point>
173 to 175 °C

$$$$

// each listed molecule needs a value for melting point
1. CCOc1cccc(NC(=O)Nc2ccc3c(c2)CCN(C(=O)Nc2ccc(OCC(O)CO)cc2Cl)C3)c1 (stereo not shown)
2. COc1ccc(C)cc1NC(=O)Nc1ccc(N2CCN(C(=O)Nc3c(C)cccc3C)C(C)C2)cc1 (stereo not shown)
3. CCOc1ccc(C)cc1NC(=O)Nc1ccc(N2CCN(C(=O)Nc3c(Cl)cccc3Cl)CC2)cc1
4. COC(=O)Cc1ccc(OC(=O)N2CCN(c3ccc(NC(=O)Nc4cc(C)ccc4OC)cc3)CC2)c(Cl)c1
5. CCc1ccccc1NC(=O)Nc1ccc(N2CCN(C(=O)Nc3c(C)cccc3Cl)CC2)cc1
6. CCCCCCNC(=O)Nc1ccc(N2CCN(C(=O)Nc3c(C)cccc3Cl)CC2)cc1
7. CC(C)(C)OC(=O)N1CCN(c2ccc(NC(=O)Nc3cc(Cl)ccc3Oc3ccccc3)cc2)CC1

[A]
["134 to 139 °C", "204 to 206 °C", "159 to 161 °C", "209 to 210 °C", "217 to 219 °C", "206 to 210 °C", "94 to 96 °C"]

// each listed molecule needs a value for melting point
1. COc1ccc(C)cc1NC(=O)Nc1ccc(N2CCN(C(=O)Nc3ccccc3Br)CC2)cc1
2. COc1ccc(F)cc1NC(=O)Nc1ccc(N2CCN(C(=O)Nc3ccc(C)cc3Cl)CC2)nc1
3. COc1ccc(Cl)cc1NC(=O)Nc1ccc(N2CCN(C(=O)Nc3c(F)cccc3F)CC2)cc1
4. COc1ccc(C)cc1NC(=O)Nc1ccc2c(c1)CCN(C(=O)Oc1ccc(C(=O)O)cc1Cl)C2
5. COc1ccc(Cl)cc1NC(=O)Nc1ccc(N2CCN(C(=O)OC(C)(C)C)CC2)nc1
6. COc1cc(NC(=O)Nc2ccc(N3CCN(C(=O)Nc4ccc(OCCO)cc4C(F)(F)F)CC3)cc2)cc(OC)c1

[A]
1. 212 to 214 °C
2. 217 to 218 °C
3. 230 to 232 °C
4. 196 to 198 °C
5. 155 to 157 °C
6. 209 to 210 °C

====

Would you kindly list melting point for each of these compounds?

Look over these answered cases.
>  <COMPOUND>
CCOc1ccc(Cl)cc1NC(=O)Nc1ccc(N2CCN(C(=O)Nc3ncccc3C)CC2)nc1

>  <ASSAY_RESULT>
214 to 215 °C

$$$$
>  <COMPOUND>
COc1ccccc1NC(=O)Nc1ccc(C2CCN(C(=O)Nc3ccc(OCC(O)CO)cc3Cl)CC2)cc1 (centres unmarked)

>  <ASSAY_RESULT>
158 to 161 °C

$$$$
>  <COMPOUND>
CCOc1ccc(C)cc1NC(=O)Nc1ccc(N2CCN(C(=O)OC(C)(C)C)CC2)cc1

>  <ASSAY_RESULT>
105 to 107 °C

$$$$
>  <COMPOUND>
COc1ccc(C)cc1NC(=O)Nc1ccc(N2CCN(C(=O)Nc3ccc(OCCO)cc3Cl)CC2)nc1

>  <ASSAY_RESULT>
196 to 197 °C

$$$$
>  <COMPOUND>
COc1ccc(C)cc1NC(=O)Nc1ccc(C2=CCN(C(=O)Nc3ccc(OCCO)cc3Cl)CC2)cc1

>  <ASSAY_RESULT>
117 to 120 °C

$$$$
>  <COMPOUND>
COc1ccccc1NC(=O)Nc1ccc(N2CCN(C(=O)OC(C)(C)C)CC2)cc1

>  <ASSAY_RESULT>
184 °C

$$$$
>  <COMPOUND>
COc1ccc(C)cc1NC(=O)Nc1ccc(N2CCN(C(N)=O)CC2)cc1

>  <ASSAY_RESULT>
136 °C

$$$$

Shift focus to the following entry.
Quick note, melting point for COc1cc(NC(=O)Nc2ccc(N3CCN(C(=O)Nc4ncccc4C)CC3)cc2)cc(OC)c1 landed at 188 to 190 °C
